Ref: the supplement of paper PMC4862054

Test system: CAL-51
Assay Explanation: normalised viability (% of control), CellTiter-Blue; higher = more viable cells (about 100 = DMSO control)
Recorded Conditions: 10 nM; incubation time: 72 h
Readout: normalised viability (%)
Provide the reading as a plain figure in %.

Need normalised viability of `CC(=O)Nc1ccc(C(=O)Nc2ccccc2N)cc1` , thanks.
96.7

Need normalised viability of `Cn1c(Nc2ccc(C(F)(F)F)cc2)nc2cc(Oc3ccnc(-c4ncc(C(F)(F)F)[nH]4)c3)ccc21` , thanks.
99.1

Need normalised viability of `Cc1ccc(C(=O)Nc2ccc(CN3CCN(C)CC3)c(C(F)(F)F)c2)cc1C#Cc1cnc2cccnn12` , thanks.
89.5

Need normalised viability of `NC(=O)Nc1cc(-c2cccc(F)c2)sc1C(=O)N[C@H]1CCCNC1` , thanks.
102

Need normalised viability of `CCN(CCCOc1ccc2c(Nc3cc(CC(=O)Nc4cccc(F)c4)[nH]n3)ncnc2c1)CCOP(=O)(O)O` , thanks.
83.6
